protocol-details: Metabolic stability in rat liver S9 fraction assessed as compound remaining at 10 uM after 60 mins by HPLC analysis in presence of NADP
Type: ADME, subcellular
stated-conditions: read-out: Stability
Provide the recorded remaining at 1 h, 10 µM for the entries that follow.
Numbers only, in %.

Check out these entries, answers already filled in.
| compound | recorded-result |
| --- | --- |
| C[C@H](NP(=O)(OC[C@H]1O[C@@H](n2cnc3c(=O)[nH]c(N)nc32)[C@](C)(O)[C@@H]1O)Oc1cccc2ccccc12)C(=O)OCC(C)(C)C (some centres undefined) | 5 |
| CC(C)OC(=O)[C@H](C)NP(=O)(OC[C@H]1O[C@@H](n2cnc3c(=O)[nH]c(N)nc32)[C@](C)(O)[C@@H]1O)Oc1cccc2ccccc12 (some centres undefined) | 25 |
| CC[C@H](C)[C@H](NP(=O)(OC[C@H]1O[C@@H](n2cnc3c(=O)[nH]c(N)nc32)[C@](C)(O)[C@@H]1O)Oc1cccc2ccccc12)C(=O)OCc1ccccc1 (some centres undefined) | 37 |

Next compound, please.
Query string: Recall and state the measured remaining at 1 h, 10 µM for CC(C)[C@H](NP(=O)(OC[C@H]1O[C@@H](n2cnc3c(=O)[nH]c(N)nc32)[C@](C)(O)[C@@H]1O)Oc1cccc2ccccc12)C(=O)OCc1ccccc1 (some centres undefined) .
Result string: 8

====

Tested on: Plasma
protocol-details: Dose normalized AUC in ICR mouse plasma at 50 mg/kg, po by LC-MS/MS analysis
Type: ADME, organism-based
Design: dose 50 mg/kg, route oral
stated-conditions: in vivo
readout-type: log10(AUC) (log10 of the value in ng·h/mL)
Values below are the log10 of the recorded AUC, with ng·h/mL as the unit.

| compound | log10(AUC) |
| --- | --- |
| C[C@@]1(O)[C@H](O)[C@@H](CO)O[C@H]1n1cnc2c(=O)[nH]c(N)nc21 | 2.61 |
| CC(C)[C@H](NP(=O)(OC[C@H]1O[C@@H](n2cnc3c(=O)[nH]c(N)nc32)[C@](C)(O)[C@@H]1O)Oc1cccc2ccccc12)C(=O)OCc1ccccc1Cl (stereo not given in full) | 1.69 |
| C[C@H](NP(=O)(OC[C@H]1O[C@@H](n2cnc3c(=O)[nH]c(N)nc32)[C@](C)(O)[C@@H]1O)Oc1cccc2ccccc12)C(=O)OCC(C)(C)C (stereo not given in full) | 1.58 |
| Cc1ccccc1COC(=O)[C@@H](NP(=O)(OC[C@H]1O[C@@H](n2cnc3c(=O)[nH]c(N)nc32)[C@](C)(O)[C@@H]1O)Oc1cccc2ccccc12)C(C)C (stereo not given in full) | 1.72 |
| CC(C)[C@H](NP(=O)(OC[C@H]1O[C@@H](n2cnc3c(=O)[nH]c(N)nc32)[C@](C)(O)[C@@H]1O)Oc1cccc2ccccc12)C(=O)OC1CCCCC1 (stereo not given in full) | 1.52 |

Below is a list of compounds. For each, state its recorded log10(AUC).
1. C[C@H](NP(=O)(OC[C@H]1O[C@@H](n2cnc3c(=O)[nH]c(N)nc32)[C@](C)(O)[C@@H]1O)Oc1cccc2ccccc12)C(=O)O[C@@H](C)c1ccccc1 (stereo not given in full)
2. CC(C)[C@H](NP(=O)(OC[C@H]1O[C@@H](n2cnc3c(=O)[nH]c(N)nc32)[C@](C)(O)[C@@H]1O)Oc1cccc2ccccc12)C(=O)OCc1ccc(Cl)cc1 (stereo not given in full)
3. CC(C)[C@H](NP(=O)(OC[C@H]1O[C@@H](n2cnc3c(=O)[nH]c(N)nc32)[C@](C)(O)[C@@H]1O)Oc1cccc2ccccc12)C(=O)OCc1ccccc1 (stereo not given in full)

Result string:
[1.93, 1.94, 1.60]

====

Provide the recorded remaining at 0.5 h, 10 µM for the entries that follow.
protocol-details: Metabolic stability in cynomolgus monkey intestine S9 fraction assessed as compound remaining at 10 uM after 30 mins by HPLC analysis in presence of NADP
Assay type: ADME, tissue-based, Macaca fascicularis
stated-conditions: read-out: Stability
Give bare numbers, in %.

| compound | remaining at 0.5 h, 10 µM [%] |
| --- | --- |
| C[C@H](NP(=O)(OC[C@H]1O[C@@H](n2cnc3c(=O)[nH]c(N)nc32)[C@](C)(O)[C@@H]1O)Oc1cccc2ccccc12)C(=O)OCc1ccccc1 (some centres not stated) | 0 |

Next compound, please.
Query string: Recall and state the measured remaining at 0.5 h, 10 µM for CC(C)[C@H](NP(=O)(OC[C@H]1O[C@@H](n2cnc3c(=O)[nH]c(N)nc32)[C@](C)(O)[C@@H]1O)Oc1cccc2ccccc12)C(=O)OCc1ccccc1 (some centres not stated) .
Result string: 25

====

protocol-details: Cmax in ICR mouse plasma at 50 mg/kg, po by LC-MS/MS analysis
Type: ADME, organism-based
Parameters: dose 50 mg/kg, route oral
Provide the recorded Cmax for the entries that follow.
One number for each entry, in ng/mL.

Check out these entries, answers already filled in.
| molecule | Cmax, ng/mL |
| --- | --- |
| CC(C)[C@H](NP(=O)(OC[C@H]1O[C@@H](n2cnc3c(=O)[nH]c(N)nc32)[C@](C)(O)[C@@H]1O)Oc1cccc2ccccc12)C(=O)OCc1ccccc1Cl (some centres undefined) | 518 |
| C[C@H](NP(=O)(OC[C@H]1O[C@@H](n2cnc3c(=O)[nH]c(N)nc32)[C@](C)(O)[C@@H]1O)Oc1cccc2ccccc12)C(=O)O[C@@H](C)c1ccccc1 (some centres undefined) | 1380 |
| Cc1ccccc1COC(=O)[C@@H](NP(=O)(OC[C@H]1O[C@@H](n2cnc3c(=O)[nH]c(N)nc32)[C@](C)(O)[C@@H]1O)Oc1cccc2ccccc12)C(C)C (some centres undefined) | 668 |

Next molecule, please.
Query string: Recall and state the measured Cmax for C[C@H](NP(=O)(OC[C@H]1O[C@@H](n2cnc3c(=O)[nH]c(N)nc32)[C@](C)(O)[C@@H]1O)Oc1cccc2ccccc12)C(=O)OCC(C)(C)C (some centres undefined) .
Result string: 262

====

protocol-details: Metabolic stability in cynomolgus monkey plasma assessed as compound remaining at 1 ug/ml after 30 mins
Assay type: ADME, cell-free, Macaca fascicularis
stated-conditions: read-out: Stability
readout-type: remaining at 0.5 h, 1 ug/ml (%)
Answers are plain numbers, in %.

Check out these entries, answers already filled in.
| molecule | unit-tag | recorded-result |
| --- | --- | --- |
| CCCCOC(=O)[C@H](C)NP(=O)(OC[C@H]1O[C@@H](n2cnc3c(=O)[nH]c(N)nc32)[C@](C)(O)[C@@H]1O)Oc1cccc2ccccc12 (stereo not given in full) | % | 98 |
| CC(C)[C@H](NP(=O)(OC[C@H]1O[C@@H](n2cnc3c(=O)[nH]c(N)nc32)[C@](C)(O)[C@@H]1O)Oc1ccc2ccccc2c1)C(=O)OCc1ccccc1 (stereo not given in full) | % | 100 |
| C[C@H](NP(=O)(OC[C@H]1O[C@@H](n2cnc3c(=O)[nH]c(N)nc32)[C@](C)(O)[C@@H]1O)Oc1cccc2ccccc12)C(=O)OC1CCCCC1 (stereo not given in full) | % | 100 |
| C[C@H](NP(=O)(OC[C@H]1O[C@@H](n2cnc3c(=O)[nH]c(N)nc32)[C@](C)(O)[C@@H]1O)Oc1cccc2ccccc12)C(=O)O[C@@H](C)c1ccccc1 (stereo not given in full) | % | 100 |
| CCCCCOC(=O)[C@H](C)NP(=O)(OC[C@H]1O[C@@H](n2cnc3c(=O)[nH]c(N)nc32)[C@](C)(O)[C@@H]1O)Oc1cccc2ccccc12 (stereo not given in full) | % | 94 |

Below is a list of molecules. For each, state its recorded remaining at 0.5 h, 1 ug/ml.
1. CC(C)[C@@H](NP(=O)(OC[C@H]1O[C@@H](n2cnc3c(=O)[nH]c(N)nc32)[C@](C)(O)[C@@H]1O)Oc1cccc2ccccc12)C(=O)OCc1ccccc1 (stereo not given in full)
2. C[C@H](NP(=O)(OC[C@H]1O[C@@H](n2cnc3c(=O)[nH]c(N)nc32)[C@](C)(O)[C@@H]1O)Oc1cccc2ccccc12)C(=O)OCc1ccccc1 (stereo not given in full)
3. CSCC[C@H](NP(=O)(OC[C@H]1O[C@@H](n2cnc3c(=O)[nH]c(N)nc32)[C@](C)(O)[C@@H]1O)Oc1cccc2ccccc12)C(=O)OC(C)C (stereo not given in full)

Result string:
1. 68
2. 54
3. 96

Below is a list of molecules. For each, state its recorded remaining at 0.5 h, 1 ug/ml.
1. CC(C)(NP(=O)(OC[C@H]1O[C@@H](n2cnc3c(=O)[nH]c(N)nc32)[C@](C)(O)[C@@H]1O)Oc1cccc2ccccc12)C(=O)OCc1ccccc1 (stereo not given in full)
2. CC(OC(=O)[C@H](C)NP(=O)(OC[C@H]1O[C@@H](n2cnc3c(=O)[nH]c(N)nc32)[C@](C)(O)[C@@H]1O)Oc1cccc2ccccc12)c1ccccc1 (mixture of isomers)

Result string:
[92, 100]

Reference for the values: ChEMBL document CHEMBL1177718
